Hello, the source for this data is patent US20240270821A1, in case you need it.

- Measurement Target: hGLP-1R (Homo sapiens, UniProt P43220)
- Sequence (P43220 24-463): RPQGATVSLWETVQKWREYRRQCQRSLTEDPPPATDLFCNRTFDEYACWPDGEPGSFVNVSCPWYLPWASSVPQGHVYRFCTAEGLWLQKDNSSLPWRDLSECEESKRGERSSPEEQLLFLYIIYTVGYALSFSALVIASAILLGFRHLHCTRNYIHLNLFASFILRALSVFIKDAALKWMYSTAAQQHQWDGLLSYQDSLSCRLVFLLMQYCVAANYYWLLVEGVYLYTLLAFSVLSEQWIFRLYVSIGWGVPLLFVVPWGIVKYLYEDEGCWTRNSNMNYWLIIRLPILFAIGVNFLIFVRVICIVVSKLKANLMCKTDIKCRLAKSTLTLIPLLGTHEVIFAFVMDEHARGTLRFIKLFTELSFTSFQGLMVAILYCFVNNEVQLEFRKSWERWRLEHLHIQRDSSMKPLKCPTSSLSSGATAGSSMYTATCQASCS
- Test Description: cell-based or functional assay
Starred links: 1 amine or outer side, 2 acyl side, 3 side chain; linkers in the order of their positions; H or OH if unused. Non-standard residues stand in square brackets, D forms with d. Groups on a side chain read outwards from the residue. No end group written: not given here. *: point of attachment. C18 diacid = O=C(O)CCCCCCCCCCCCCCCCC(=O)*; γGlu = O=C(O)[C@H](CCC(=O)[*:2])N[*:1]; αMe4Pal = C[C@](N)(Cc1ccncc1)C(=O)O; 4Pal = N[C@@H](Cc1ccncc1)C(=O)O; αMeL = CC(C)C[C@](C)(N)C(=O)O; Orn = NCCC[C@H](N)C(=O)O; Dab = NCC[C@H](N)C(=O)O; Aib = CC(C)(N)C(=O)O
Strictly below 2 nM in Relative cAMP EC50: yes (1). Otherwise: no (0).

- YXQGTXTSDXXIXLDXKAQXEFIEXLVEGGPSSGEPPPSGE (Aib, αMeF(2F), 4Pal, αMeS, αMeL, Orn, Me4Pal, αMeY; lipidated Lys; amide; synthetic construct; SITE 2: note = 2-Aminoisobutyric Acid; SITE 6: note = alpha-methyl-2-fluoro-L-phenylalanine; SITE 10: note = 3-(4-Pyridyl)-L-alanine; SITE 11: note = alpha-methyl-L-serine; SITE 13: note = alpha-methyl-leucine; SITE 16: note = L-ornithine; SITE 17: note = Lysine is chemically mo) [Example 1161]: yes (1)
- YXQGTFTSDXSQXLDXKAQXQFIEYLIAGGPSSGAPPPSGSEE (not fully specified; synthetic construct; SITE 2: note = 2-Aminoisobutyric Acid; SITE 10: note = 3-(4-Pyridyl)-L-alanine; SITE 13: note = alpha-methyl-leucine; SITE 16: note = L-ornithine; SITE 17: note = Lysine is chemically modified through conjugation of the epsilon-amino group of the Lysine side chain with (gamma-Gl)) [Example 1005]: yes (1)
- YXQGTFTSDFSQXLDKKAQXAFIEYLLEXGPSSGAPPPSGX (synthetic construct; SITE 2: note = 2-Aminoisobutyric Acid; SITE 13: note = alpha-methyl-leucine; SITE 17: note = Lysine is chemically modified through conjugation of the epsilon-amino group of the Lysine side chain with (2-[2-(2-Amino-ethoxy)-ethoxy]-acetyl)-(gamma-Glu)-CO-(CH2) 16-CO2H; SITE 20: n) [Example 782]: yes (1)
- YXQGTFTSDFSXXLDKKAQXAFIEYLLAGGPSSGEPPPEGE (synthetic construct; SITE 2: note = 2-Aminoisobutyric Acid; SITE 12: note = L-ornithine; SITE 13: note = alpha-methyl-leucine; SITE 17: note = Lysine is chemically modified through conjugation of the epsilon-amino group of the Lysine side chain with (2-[2-(2-Amino-ethoxy)-ethoxy]-acetyl)-(gamma-Glu)) [Example 98]: no (0)
- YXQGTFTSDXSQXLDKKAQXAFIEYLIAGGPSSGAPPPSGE (non-natural residues; lipidated Lys; C-terminal amide; synthetic construct; SITE 2: note = 2-Aminoisobutyric Acid; SITE 10: note = 3-(4-Pyridyl)-L-alanine; SITE 13: note = alpha-methyl-leucine; SITE 17: note = Lysine is chemically modified through conjugation of the epsilon-amino group of the Lysine side chain with D-Glutamic acid-(gamma-Glu)-CO-(CH2)16) [Example 1085]: yes (1)
- Y[Aib]QGTFTSD[4Pal]S[Dab][αMeL]LD[Orn]K([γGlu-γGlu-C18 diacid])AQ[αMe4Pal]AFIE[αMe4Pal]LLAGGPSSGAPPPEGSEE-NH2 [Example 1055]: no (0)
